B1: LINE1-mini (parent)
chain: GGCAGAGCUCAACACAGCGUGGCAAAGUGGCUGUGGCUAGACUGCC

Variants of: B1
Test: self-cleavage, relative activity (ratio to wild type); higher = more cleavage; in vitro, sequencing; the parent is a self-cleaving ribozyme
Entries and their self-cleavage
property measured: self-cleavage

1. G5U C46A | 0.11
2. A25U U32A | 0.04
3. C8G A11C | 0.02
4. G2A A16U | 0.33
5. A25C C45A | 0.23
6. C8U G35U | 0.42
7. C8G C37U | 0.05
8. A4C G40U | 0.13
9. A11G G22U | 0.05
10. C18A A26C | 2.92
11. A24C C31U | 0.12
12. G1U A25U | 0.45
13. C10G U20C | 0.07
14. G1U C8G | 0.06
15. A12U U34C | 0.03
16. G5C C23U | 0.05
17. G17A C23G | 0.13
18. A12G C18A | 0.03
19. U28C C31U | 0.45
20. C3U C15U | 0.32
21. G2U U20C | 0.05
22. C15A G19C | 0.14
